Recorded max response for the following compounds
- assay-details: Cycloheximide Counterscreen for Small Molecule Inhibitors of Shiga Toxin; note: read at 38.3 µM for the half of the compounds with a filed dose; 0% is about no effect
- cond: cell reporter, cycloheximide protein synthesis inhibition counterscreen; stronger effect = higher value
Hit rate of the full screen: of about 300,000 compounds, about 37,000 (12%) were called active. The sample as a whole holds a higher share of actives than the screen did.
Give the number; % is assumed, so skip it.

Worked examples follow.
> print(dat)
                               query.smiles  units  recorded.result
1  CC(=O)Nc1ccccc1C(=O)OCC(=O)c1cccc2ccccc12      %             7.37
2  N#CCC(=O)N/N=C/c1ccc(SCC(=O)Nc2ccccc2)o1      %             2.34
3  Cc1ccc(C(C)C)c(OCCSc2nc3ccccc3n2CC(=O)O)c1      %            -3.05
4            COC(=O)CSc1nc(C2CC2)nc2ccccc12      %             -1.2
5  CCOC(=O)c1nnn2c1nc(N1CCN(c3ccccc3)CC1)c1ccccc12      %            -4.05

For record `CC(=O)N1CCOc2ccc(S(=O)(=O)N3CCN(c4cccc(C(F)(F)F)c4)CC3)cc21` the listed max response is -4.21

For record `O=C(OCC(=O)c1c[nH]c2ccccc12)c1cccc(O)c1` the listed max response is 72.9

For record `COc1ccc2nc(SCc3ccccc3)nc(C)c2c1` the listed max response is 55.9

For record `COC(=O)CSc1nc(C)c2ccc(OC)cc2n1` the listed max response is 42.7

For record `COc1cccc(CSc2nc3nc(C)cc(C)n3n2)c1` the listed max response is 3.55

For record `O=C(OCc1ccc(Br)cc1)c1cccc(-c2nnc(-c3ccccc3)o2)c1` the listed max response is 13.9
